# MEASUREMENT_TARGET: Voltage-gated inwardly rectifying potassium channel KCNH2 (Homo sapiens) (UniProt Q12809)
# Sequence (Q12809 whole entry, looked up): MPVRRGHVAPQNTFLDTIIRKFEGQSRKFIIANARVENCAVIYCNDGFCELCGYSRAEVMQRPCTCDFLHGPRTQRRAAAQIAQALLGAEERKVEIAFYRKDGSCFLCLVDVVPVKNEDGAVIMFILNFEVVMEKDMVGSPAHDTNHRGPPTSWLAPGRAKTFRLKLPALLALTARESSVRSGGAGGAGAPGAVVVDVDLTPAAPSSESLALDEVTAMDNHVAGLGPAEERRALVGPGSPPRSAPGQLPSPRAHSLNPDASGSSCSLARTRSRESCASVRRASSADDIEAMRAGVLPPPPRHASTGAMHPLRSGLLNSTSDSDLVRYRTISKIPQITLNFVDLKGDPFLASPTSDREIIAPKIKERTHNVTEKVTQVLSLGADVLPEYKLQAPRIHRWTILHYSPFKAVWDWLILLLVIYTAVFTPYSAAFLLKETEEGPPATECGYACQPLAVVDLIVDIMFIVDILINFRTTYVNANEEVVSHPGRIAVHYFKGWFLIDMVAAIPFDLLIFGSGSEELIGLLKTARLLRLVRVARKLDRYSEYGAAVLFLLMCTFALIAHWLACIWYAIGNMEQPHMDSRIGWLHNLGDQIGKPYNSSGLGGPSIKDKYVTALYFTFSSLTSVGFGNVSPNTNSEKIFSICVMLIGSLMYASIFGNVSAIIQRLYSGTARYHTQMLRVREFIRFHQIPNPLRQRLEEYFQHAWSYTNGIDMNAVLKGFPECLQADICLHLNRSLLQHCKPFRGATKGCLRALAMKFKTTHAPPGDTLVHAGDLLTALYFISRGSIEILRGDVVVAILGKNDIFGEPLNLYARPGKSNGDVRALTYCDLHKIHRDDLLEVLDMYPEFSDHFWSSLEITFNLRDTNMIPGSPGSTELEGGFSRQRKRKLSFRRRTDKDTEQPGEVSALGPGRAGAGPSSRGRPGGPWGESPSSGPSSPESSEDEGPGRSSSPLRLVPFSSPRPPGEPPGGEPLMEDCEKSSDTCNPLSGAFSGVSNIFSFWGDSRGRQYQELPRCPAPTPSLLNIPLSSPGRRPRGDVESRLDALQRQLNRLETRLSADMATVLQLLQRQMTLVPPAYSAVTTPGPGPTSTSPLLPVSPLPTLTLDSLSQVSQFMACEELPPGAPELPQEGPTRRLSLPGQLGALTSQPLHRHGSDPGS
# PROTOCOL_NOTES: qHTS Assay for Small Molecule Inhibitors of the Human hERG Channel Activity (AID 588834);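 note: lower thallium flux fluorescence means stronger hERG block; nearly all actives have a fitted effect of over 50% in size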
# EXPERIMENTAL_CONDITIONS: U2OS BacMam hERG, FluxOR thallium flux fluorescence; series mostly up to 46.1 µM
Inconclusive results are not listed. Activity calls are given as the source filed them. Calls come from the whole dose curve; as a rule, active = well fitted inhibition curve with a large enough effect; inconclusive = small, poorly fitted or top-dose-only effect; inactive = flat fitted curve, though single readings scatter.
Permitted responses: active, inactive

Each compound tested received a call. Report the one for CCOC(=O)OC(C)OC1=C(C(=O)Nc2ccccn2)N(C)S(=O)(=O)c2ccccc21 (stereo unspecified) .
inactive

Could you please tell me the result logged for `CC(=O)OCC(=O)[C@@]12OC(C)(C)O[C@@H]1C[C@H]1[C@@H]3C[C@H](F)C4=CC(=O)C=C[C@]4(C)[C@@]3(F)[C@@H](O)C[C@@]12C` in this assay?
inactive

Which outcome was entered for the compound `c1ccc(CNCCNCc2ccccc2)cc1` in this test?
inactive

Just curious, what result did `CC(=O)N/N=C/c1ccc([N+](=O)[O-])o1` get here?
inactive

Called result for `NC(=NCCCCCCN=C(N)/N=C(\N)Nc1ccc(Cl)cc1)/N=C(\N)Nc1ccc(Cl)cc1`
inactive

Can you look up the reported call for `CC(=O)OCC(=O)[C@@]1(OC(C)=O)[C@@H](C)C[C@H]2[C@@H]3C[C@H](F)C4=CC(=O)C=C[C@]4(C)[C@@]3(F)[C@@H](O)C[C@@]21C` for me?
inactive

Returns: the outcome recorded for `C=C1C[C@H]2[C@@H]3C=C(C)C4=CC(=O)CC[C@]4(C)[C@H]3CC[C@]2(C)[C@@]1(OC(C)=O)C(C)=O` in this assay.
inactive

So what was the verdict on `C=C(CC)C(=O)c1ccc(OCC(=O)O)c(Cl)c1Cl` in this test?
inactive

Recorded call for `NC(=O)C(=O)N/N=C/c1ccc([N+](=O)[O-])o1` ?
inactive

Each compound tested received a call. Report the one for `CCN(CC)CCNC(=O)COc1ccc(Cl)cc1` .
active

What was the test verdict on `C[C@@H]1C(=O)NC2=Nc3cccc(Cl)c3CN21` ?
inactive

What classification did `CCOC(=O)/C=C(C)/C=C/C=C(C)/C=C/c1c(C)cc(OC)c(C)c1C` end up with in this test?
inactive

Could you please tell me the result logged for `C[C@@H]1CN(CCCn2c3ccccc3c3ccccc32)C[C@H](C)N1` in this assay?
active

Field: outcome | Entry: `NC(=O)CC[C@@H]1NC(=O)[C@H](Cc2ccccc2)NC(=O)[C@H](Cc2ccc(O)cc2)NC(=O)CCSSC[C@@H](C(=O)N2CCC[C@H]2C(=O)N[C@@H](CCCN=C(N)N)C(=O)NCC(N)=O)NC(=O)[C@H](CC(N)=O)NC1=O`
inactive

How was `CC(=O)c1ccc2c(c1)N(CCCN1CCC(CCO)CC1)c1ccccc1S2` classified in this test?
active

Kindly provide the recorded test outcome for the following compound: `C[C@]12CC[C@@H]3c4ccc(O)cc4CC[C@H]3[C@@H]1C[C@@H](O)[C@@H]2O`
inactive

###

Task for the reader: assign each of the following molecules its reported activation.
# PROTOCOL_NOTES: qHTS assay for small molecule activators of the p53 signaling pathway (AID 651743); note: % of control where 0% means no effect
# EXPERIMENTAL_CONDITIONS: HCT-116 p53RE-bla, beta-lactamase FRET ratio, 16 h; stronger effect = higher value
Results filed as inconclusive are left out. Numbered stars: 1 amine (or outer) side, 2 acyl side, 3 side chain; on linkers, the order of the positions; unused ones are H or OH. Bridge positions count the residues as written; N and C are the ends. Square brackets hold non-standard residues; d marks the D form. Peptide text beside a SMILES is read from it. I, II: the chains in the order shown. Actinocin(9to1) = Cc1c2oc3c(C)ccc(C(=O)[*:1])c3nc-2c(C(=O)[*:2])c(N)c1=O; NMeV = CN[C@H](C(=O)O)C(C)C; Sar = CNCC(=O)O
Your answer should be a plain number; it is taken to be in %.

Give its activation value. Item: `CC/C(=C(/CC)c1ccc(O)cc1)c1ccc(O)cc1`
37.6

Need activation of Cc1c2oc3c(C)ccc(C(=O)N[C@@H]4C(=O)N[C@H](C(C)C)C(=O)N5CCC[C@H]5C(=O)N(C)CC(=O)N(C)[C@@H](C(C)C)C(=O)O[C@@H]4C)c3nc-2c(C(=O)N[C@@H]2C(=O)N[C@H](C(C)C)C(=O)N3CCC[C@H]3C(=O)N(C)CC(=O)N(C)[C@@H](C(C)C)C(=O)O[C@@H]2C)c(N)c1=O (I: T[dV]P[Sar][NMeV] / II: T[dV]P[Sar][NMeV]; ester I:1-I:C, II:1-II:C; linker I:N-II:N via Actinocin(9to1)) , thanks.
-13

###

# PROTOCOL_NOTES: Cell Viability - NIH 3T3 (AID 541);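 note: cells exposed to compound for 40 hours; nearly all actives have a fitted effect of over 25% in size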; note: potency is the fitted concentration of half-maximal effect
# EXPERIMENTAL_CONDITIONS: NIH 3T3 cell viability, qHTS
# From the text: NIH Chemical Genomics Center [NCGC] NIH Molecular Libraries Screening Centers Network [MLSCN] National Institutes of Environmental Health Sciences [NIEHS] National Toxicology Program [NTP] We have developed a 1536-well cell-based assay for quantitative high throughput screening (qHTS) against a number of cell lines to determine in vitro cytotoxicity of small molecules. […] 8. Detection; Luminescence; Viewlux plate reader […]
Results filed as inconclusive are left out. Calls of active or inactive are those of the source. Calls come from the whole dose curve; as a rule, active = well fitted cell-killing curve with a large enough effect; inconclusive = small, poorly fitted or top-dose-only effect; inactive = flat fitted curve, though single readings scatter.
QUANTITY_NAME: Potency

1) Nc1ccc(C(=O)O)cc1; inactive
2) O=c1ccc2ccccc2o1; inactive
3) C=CCc1ccc(O)c(OC)c1; inactive
4) O=C(O)CCCCC(=O)O; inactive
5) CC(O)C(=O)O (centres undefined); inactive

Using the record for `COc1cccc2c1C(=O)c1c(O)c3c(c(O)c1C2=O)C[C@@](O)(C(=O)CO)C[C@@H]3O[C@H]1C[C@H](N)[C@H](O)[C@H](C)O1` , report its Potency.
0.0794 µM (active)

Find the recorded Potency belonging to `CC(=O)Oc1ccc(C(c2ccc(OC(C)=O)cc2)c2ccccn2)cc1` and report it.
inactive

Suppose we examine the compound `NC(=NCCCCCCN=C(N)/N=C(\N)Nc1ccc(Cl)cc1)/N=C(\N)Nc1ccc(Cl)cc1` ; what Potency value has been reported?
31.6 µM (active)

Could you share which Potency value was measured for `COC1=CC(=O)C[C@@H](C)[C@]12Oc1c(Cl)c(OC)cc(OC)c1C2=O` ?
inactive

###

# Tested on: CAOV3
# PROTOCOL_NOTES: Primary qHTS to identify gynecologic anti-cancer compounds using libraries of approved drugs and bioactive compounds (AID 1345084); note: nearly all actives have a fitted effect of over 55% in size
# EXPERIMENTAL_CONDITIONS: Gynecologic cancer cell panel viability, ATPlite luminescence, 48 h; series mostly up to 57.5 µM
Records with an inconclusive call do not appear. Active and inactive are the calls of the source. Calls come from the whole dose curve; as a rule, active = well fitted cell-killing curve with a large enough effect; inconclusive = small, poorly fitted or top-dose-only effect, or effect the other way; inactive = flat fitted curve, though single readings scatter.
Please reply with one of these outcomes: active, inactive

Record lookup: outcome of this test for CN=C(NC#N)Nc1ccc(C2=NNC(=O)CC2C)cc1 (stereo not drawn) ?
inactive

Look up the recorded call for `CCCN1CCCC[C@H]1C(=O)Nc1c(C)cccc1C` in this test.
inactive

What did this assay record as the result for `C=C(CC)C(=O)c1ccc(OCC(=O)O)c(Cl)c1Cl` ?
inactive

Hi, sorry to bother you, what did the test record for `C/C=C/c1ccc(OC)cc1` ?
inactive

What call does the record list for `CNC(=O)CN(CCN(CCN(CC(=O)[O-])CC(=O)NC)CC(=O)[O-])CC(=O)[O-].O.[Gd+3]` ?
inactive

So what was the verdict on Cc1c(F)c(N2CCNC(C)C2)cc2c1c(=O)c(C(=O)O)cn2C1CC1 (stereo not drawn) in this test?
inactive

For `CN(C/C=C/c1ccccc1)Cc1cccc2ccccc12` , which call appears in the assay record?
inactive

Query: recorded result category for `O=C1OCCN1/N=C/c1ccc([N+](=O)[O-])o1` in this test
inactive

What was the test verdict on `CCCCCCCCCCCCCCCC[N+](C)(C)CCN(Cc1ccc(OC)cc1)c1ncccn1` ?
active

Returns: the outcome recorded for COc1cccc(CCc2ccccc2OCC(CN(C)C)OC(=O)CCC(=O)O)c1 (stereo not drawn) in this assay.
inactive

Recorded test outcome, item `CCCOC(C(=O)OC1CCN(C)CC1)(c1ccccc1)c1ccccc1`
inactive

Tell me the recorded outcome of this test for `COc1cc(C(=S)N2CCOCC2)cc(OC)c1OC` .
inactive

Dear colleague, could you share the recorded outcome for `CC(=O)[C@H]1CC[C@H]2[C@@H]3C[C@H](C)C4=CC(=O)CC[C@]4(C)[C@H]3[C@@H](O)C[C@]12C` when you have a moment?
inactive

Each compound tested received a call. Report the one for `CN1CCN(C(c2ccccc2)c2ccccc2)CC1` .
inactive

Field: outcome | Entry: `C=C1C[C@H]2[C@@H]3C=C(C)C4=CC(=O)CC[C@]4(C)[C@H]3CC[C@]2(C)[C@@]1(OC(C)=O)C(C)=O`
inactive

Answer briefly: the call reported for COc1cc2c(cc1OC)C(C(C(=O)N(CCc1ccc(OC)c(OC)c1OC)CCc1ccc(OC)c(OC)c1OC)c1ccccc1)=NCC2 (stereo not drawn) in this assay.
inactive

Which result was noted for this compound in the test: CN1C(CCl)Nc2cc(Cl)c(S(N)(=O)=O)cc2S1(=O)=O (stereo not drawn)
inactive

So what was the verdict on `CC(=O)OCC(=O)[C@@]1(O)[C@H](C)C[C@H]2[C@@H]3CCC4=CC(=O)C=C[C@]4(C)[C@@]3(F)[C@@H](O)C[C@@]21C` in this test?
inactive

Please state the recorded outcome for this compound: CC(Cc1ccccc1)(NC(=O)CN)c1ccccc1 (stereo not drawn)
inactive

What call does the record list for `COc1ccc(CN2CCN(C(c3ccc(F)cc3)c3ccc(F)cc3)CC2)c(OC)c1OC` ?
inactive

// return assay outcome for CC(Cc1cccc(C(F)(F)F)c1)NCCOC(=O)c1ccccc1 (stereo not drawn)
inactive

Query: recorded result category for `CC1=C(C(=O)O)N2C(=O)[C@@H](NC(=O)[C@H](N)c3ccc(O)cc3)[C@H]2SC1` in this test
inactive

Outcome? CC(O)C(=O)O (stereo not drawn)
inactive

Please state the recorded outcome for this compound: `O=C1OC(c2ccc(O)cc2)(c2ccc(O)cc2)c2ccccc21`
inactive

What was the test verdict on `C[C@]12CC[C@H]3[C@@H](CCC4=CC(=O)CC[C@@]43C)[C@@H]1CC[C@@H]2C(=O)CO` ?
inactive

Which outcome was entered for the compound NC(CS)C(=O)O (stereo not drawn) in this test?
inactive

What is the recorded call for this compound in the test? `CC1(C)O[C@@H]2C[C@H]3[C@@H]4CCC5=CC(=O)CC[C@]5(C)[C@@]4(F)[C@@H](O)C[C@]3(C)[C@]2(C(=O)CCl)O1`
inactive

Each compound tested received a call. Report the one for `COc1c(C)c2c(c(O)c1C/C=C(\C)CCC(=O)O)C(=O)OC2` .
inactive

Could you check what this test reported for `C[C@@H]1C[C@H]2[C@@H]3CCC4=CC(=O)C=C[C@]4(C)[C@@]3(F)[C@@H](O)C[C@]2(C)[C@H]1C(=O)CO` ?
inactive

Status in this test for `O=S1(=O)c2cccc3cccc(c23)N1CCCN1CCN(c2ccc(F)cc2)CC1` ?
inactive

Short answer needed: outcome of this test for `CCCSS/C(CCO)=C(\C)N(C=O)Cc1cnc(C)nc1N` ?
inactive

Could you check what this test reported for `COc1c2occc2c(OC)c2c(=O)cc(C)oc12` ?
inactive

Call for entry `Cc1c(C(C)C)c(=O)n(-c2ccccc2)n1C` :
inactive

Dear colleague, could you share the recorded outcome for `OC(CCN1CCCCC1)(c1ccccc1)c1ccccc1` when you have a moment?
inactive

GET /call?item= `Nc1ccc(C(=O)Nc2ccccc2N)cc1` returns the recorded outcome of this test.
inactive

Per the assay record, what outcome was assigned to `N[C@H](Cc1c[nH]c2ccccc12)C(=O)O` ?
inactive

What is the recorded call for this compound in the test? `C[C@H](O)C(=O)Nc1c(I)c(C(=O)NC(CO)CO)c(I)c(C(=O)NC(CO)CO)c1I`
inactive

For this compound, state the assay outcome: `CN1CCN(CCCN2c3ccccc3Sc3ccc(S(=O)(=O)N(C)C)cc32)CC1`
inactive

// param item: `CC(C)(CO)[C@@H](O)C(=O)NCCCO` ; yields the recorded call
inactive

How was `Cc1cc(=O)n(-c2ccccc2)n1C` classified in this test?
inactive

I would be grateful if you could indicate the recorded call for `Cc1nc2n(c(=O)c1CCN1CCC(c3noc4cc(F)ccc34)CC1)CCC[C@H]2O` .
inactive

Recorded test outcome, item `CC(C)COC(=O)c1ccc(N)cc1`
inactive

What call does the record list for `Oc1ccc(Cl)cc1Sc1cc(Cl)ccc1O` ?
inactive
